Cited source: the supplement of paper PMC4466140

biological target: SpBzz1-D2; experiment: SPOT peptide array binding signal intensity (averaged, normalized) (arbitrary units (background-subtracted, floor 0; scale differs between SH3 domains)); higher = stronger binding of the SH3 domain to the peptide
Class definitions on SPOT peptide array binding signal intensity: range A = under 1, range B = from 1 up to 3, range C = 3 and over

{"Binder": "APKHAPPPVPNETDN", "Assigned Category": "range A"}
{"Binder": "APPLPPTAPPPPSLP", "Assigned Category": "range A"}
{"Binder": "FYNRTAFQLPGDARV", "Assigned Category": "range A"}
{"Binder": "PPIPNAPLSPAPAVP", "Assigned Category": "range A"}
{"Binder": "AHFQPQRTAPKPPIS", "Assigned Category": "range C"}
{"Binder": "DKSRPPRPPPKPLHL", "Assigned Category": "range B"}
{"Binder": "PPPPPPPPPPPLPQS", "Assigned Category": "range C"}
{"Binder": "FVLRYYILIPHEQWD", "Assigned Category": "range C"}
{"Binder": "GKKVRPLLVLLLSRA", "Assigned Category": "range A"}
{"Binder": "SSTPTTPERPKRKSG", "Assigned Category": "range A"}
{"Binder": "NLPKRKPPKLQGPFS", "Assigned Category": "range A"}
{"Binder": "STKKPRPPVKSKPKH", "Assigned Category": "range B"}
{"Binder": "ATNVPVAPPPPPASL", "Assigned Category": "range A"}
{"Binder": "KDKSRPPRPPPKPLH", "Assigned Category": "range C"}
{"Binder": "RLSFFFPLDPAYIRN", "Assigned Category": "range B"}
{"Binder": "YSRKKLPVVLSKMTL", "Assigned Category": "range B"}
{"Binder": "PSRRAPLQLPQLVNK", "Assigned Category": "range A"}
{"Binder": "RVRKTHVPASKRPSG", "Assigned Category": "range A"}
{"Binder": "YLTRPLPSTPNEDSR", "Assigned Category": "range A"}
{"Binder": "NGRRRPKFRVQLSGN", "Assigned Category": "range A"}
{"Binder": "DKKTKPTPPPKPSHL", "Assigned Category": "range A"}
{"Binder": "GATNNAPTLPKRKNP", "Assigned Category": "range A"}
{"Binder": "VSKLRSPNTPRRLRK", "Assigned Category": "range A"}
{"Binder": "RRRDFGAPANKRPRR", "Assigned Category": "range A"}
{"Binder": "RMVRRRPLRVQFSAR", "Assigned Category": "range C"}
{"Binder": "LPMNIQPDLPPRKIM", "Assigned Category": "range C"}
{"Binder": "VPKEPAPAPPPEPDM", "Assigned Category": "range A"}
{"Binder": "TIRRRAPLSLLESHT", "Assigned Category": "range A"}
{"Binder": "MKRSRPSRSIPYTTP", "Assigned Category": "range B"}
